system: MT4; assay: Conc. required to inhibit the cytopathicity on HIV-1 by 50% on MT-4 cells; assay type: functional, cell-based; settings: Homo sapiens
readout_name: pEC50
Note on pEC50: it is the negative log10 of concentration, concentration in mol/L.

Before answering, review these 3 worked examples.
[[record]]
compound = "Cc1cn([C@H]2C[C@H](N=[N+]=[N-])[C@@H](CO)O2)c(=O)[nH]c1=O [ZIDOVUDINE]"
measured_on = "MT4"
val = 7.92

[[record]]
compound = "Cc1cn([C@H]2C[C@H](N=[N+]=[N-])[C@@H](COC(=O)OC/C=C\\CO)O2)c(=O)[nH]c1=O"
measured_on = "MT4"
val = 7.74

[[record]]
compound = "Cc1cn(C2CC(N=[N+]=[N-])C(COC(=O)OCCCCO)O2)c(=O)[nH]c1=O (centres undefined)"
measured_on = "MT4"
val = 8.22


-- ask Using the record for Cc1cn([C@H]2C[C@H](N=[N+]=[N-])[C@@H](COC(=O)OC[C@H]3O[C@H]3CO)O2)c(=O)[nH]c1=O , state its measured pEC50.
-- reply 7.89

====

species on record: Homo sapiens; assay: Conc. required to inhibit HIV-1 replication on PBMCs by 50%; format: functional, organism-based
Could you mark each record YES if its EC50 falls strictly under 60 nM, and NO if it equals or exceeds it?

[[record]]
molecule = "Cc1cn([C@H]2C[C@H](N=[N+]=[N-])[C@@H](COC(=O)OC/C=C\\CO)O2)c(=O)[nH]c1=O"
answer_label = "YES"

[[record]]
molecule = "Cc1cn(C2CC(N=[N+]=[N-])C(COC(=O)OCCCCO)O2)c(=O)[nH]c1=O (stereo not given)"
answer_label = "YES"

[[record]]
molecule = "Cc1cn([C@H]2C[C@H](N=[N+]=[N-])[C@@H](CO)O2)c(=O)[nH]c1=O [ZIDOVUDINE]"
answer_label = "YES"


-- ask Consider Cc1cn([C@H]2C[C@H](N=[N+]=[N-])[C@@H](COC(=O)OC[C@H]3O[C@H]3CO)O2)c(=O)[nH]c1=O . Does its EC50 lie strictly below 60 nM?
-- reply NO

-- ask Consider Cc1cn([C@H]2C[C@H](N=[N+]=[N-])[C@@H](COC(=O)OC/C=C/CO)O2)c(=O)[nH]c1=O . Does its EC50 lie strictly below 60 nM?
-- reply NO

====

A collection of molecules and their measured CC50
species on record: Homo sapiens; experiment: Conc. required to cause 50% death of uninfected PBMCs; assay type: functional

-- ask Using the record for Cc1cn([C@H]2C[C@H](N=[N+]=[N-])[C@@H](COC(=O)OC/C=C/CO)O2)c(=O)[nH]c1=O , state its measured CC50.
-- reply > 20 µM

-- ask Using the record for Cc1cn([C@H]2C[C@H](N=[N+]=[N-])[C@@H](COC(=O)OC/C=C\CO)O2)c(=O)[nH]c1=O , state its measured CC50.
-- reply > 20 µM

-- ask Using the record for Cc1cn([C@H]2C[C@H](N=[N+]=[N-])[C@@H](COC(=O)OC[C@H]3O[C@H]3CO)O2)c(=O)[nH]c1=O , state its measured CC50.
-- reply > 20 µM

-- ask Using the record for Cc1cn(C2CC(N=[N+]=[N-])C(COC(=O)OCCCCO)O2)c(=O)[nH]c1=O (stereo not given) , state its measured CC50.
-- reply > 20 µM

-- ask Using the record for Cc1cn([C@H]2C[C@H](N=[N+]=[N-])[C@@H](CO)O2)c(=O)[nH]c1=O [ZIDOVUDINE] , state its measured CC50.
-- reply 15 µM

====

A collection of compounds and their measured logP
test: Partition coefficient (logP); assay type: physicochemical; settings: octanol/water
Form field (numeric): enter value without unit.

Before answering, review these 3 worked examples.
[[record]]
compound = "Cc1cn([C@H]2C[C@H](N=[N+]=[N-])[C@@H](COC(=O)OC/C=C\\CO)O2)c(=O)[nH]c1=O"
val = 0.59

[[record]]
compound = "Cc1cn([C@H]2C[C@H](N=[N+]=[N-])[C@@H](CO)O2)c(=O)[nH]c1=O [ZIDOVUDINE]"
val = 0.88

[[record]]
compound = "Cc1cn([C@H]2C[C@H](N=[N+]=[N-])[C@@H](COC(=O)OC[C@H]3O[C@H]3CO)O2)c(=O)[nH]c1=O"
val = 0.47


Turning now to a further record.
-- ask Using the record for Cc1cn([C@H]2C[C@H](N=[N+]=[N-])[C@@H](COC(=O)OC/C=C/CO)O2)c(=O)[nH]c1=O , state its measured logP.
-- reply -0.59

====

assay: half life time required for 50% hydrolysis of prodrugs to AZT at 37 degrees upon incubation in normal human serum(NHS); type: ADME
readout_name: T1/2 (min)
Numeric answer only, unit min assumed.

[[record]]
compound = "Cc1cn([C@H]2C[C@H](N=[N+]=[N-])[C@@H](COC(=O)OC/C=C\\CO)O2)c(=O)[nH]c1=O"
readout_name = "T1/2"
reading_unit = "min"
val = 45

[[record]]
compound = "Cc1cn(C2CC(N=[N+]=[N-])C(COC(=O)OCCCCCCCCO)O2)c(=O)[nH]c1=O (stereo not given)"
readout_name = "T1/2"
reading_unit = "min"
val = 2

[[record]]
compound = "Cc1cn(C2CC(N=[N+]=[N-])C(COC(=O)OCCCCCCO)O2)c(=O)[nH]c1=O (stereo not given)"
readout_name = "T1/2"
reading_unit = "min"
val = 7

[[record]]
compound = "Cc1cn(C2CC(N=[N+]=[N-])C(COC(=O)OCCCCCO)O2)c(=O)[nH]c1=O (stereo not given)"
readout_name = "T1/2"
reading_unit = "min"
val = 16

[[record]]
compound = "Cc1cn(C2CC(N=[N+]=[N-])C(COC(=O)OCCCO)O2)c(=O)[nH]c1=O (stereo not given)"
readout_name = "T1/2"
reading_unit = "min"
val = 10


-- ask Using the record for Cc1cn([C@H]2C[C@H](N=[N+]=[N-])[C@@H](COC(=O)OC/C=C/CO)O2)c(=O)[nH]c1=O , state its measured T1/2.
-- reply 26

-- ask Using the record for Cc1cn(C2CC(N=[N+]=[N-])C(COC(=O)OCCCCO)O2)c(=O)[nH]c1=O (stereo not given) , state its measured T1/2.
-- reply 30

-- ask Using the record for CCCCOC(=O)OCC1OC(n2cc(C)c(=O)[nH]c2=O)CC1N=[N+]=[N-] (stereo not given) , state its measured T1/2.
-- reply 9

-- ask Using the record for Cc1cn([C@H]2C[C@H](N=[N+]=[N-])[C@@H](COC(=O)OC[C@H]3O[C@H]3CO)O2)c(=O)[nH]c1=O , state its measured T1/2.
-- reply 80
